For each of the binders below, state its RAMPO Score.
target: T1, His-tagged P3028 peptide (PGE73) (human); assay: PEPSCAN ELISA; peptide on card, His-tagged P3028 in solution;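 also: bound protein detected by peroxidase colour with ABTS substrate, imaged on the peptide card by CCD camera at 405 nm, rampo units being raw OD405 readings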
T1 construct: also called His-tag-P3028; not shown: His-tag
T1 peptide: VFDEFKPLVEEPQNLIK
Record the result as number plus unit.

IN: For KKLDTFFVLLSLFTER (P28R variant on PEPSCAN card) [SEQ ID NO: 562] , write its RAMPO Score.
OUT: 166 rampo units

IN: For KKLDTFFVKLSLFTFR (P28R variant on PEPSCAN card) [SEQ ID NO: 571] , write its RAMPO Score.
OUT: 137 rampo units

IN: For KKLDTFFVILSLFTER (P28R variant on PEPSCAN card) [SEQ ID NO: 555] , write its RAMPO Score.
OUT: 190 rampo units

IN: For KKLDTFFVKLSLFTES (P28R variant on PEPSCAN card) [SEQ ID NO: 557] , write its RAMPO Score.
OUT: 184 rampo units

IN: For KKLDTFFVKLSLFTIR (P28R variant on PEPSCAN card) [SEQ ID NO: 564] , write its RAMPO Score.
OUT: 163 rampo units

IN: For KKLDTFFVKLSLFTEL (P28R variant on PEPSCAN card) [SEQ ID NO: 544] , write its RAMPO Score.
OUT: 217 rampo units

IN: For KKLDTFFVKLSLFTEC (P28R variant on PEPSCAN card) [SEQ ID NO: 559] , write its RAMPO Score.
OUT: 175 rampo units

IN: For KKLDTFFVKLSLFTWR (P28R variant on PEPSCAN card) [SEQ ID NO: 539] , write its RAMPO Score.
OUT: 226 rampo units

IN: For KKLDTFFVALSLFTER (P28R variant on PEPSCAN card) [SEQ ID NO: 554] , write its RAMPO Score.
OUT: 191 rampo units
